The values you see were collected from ChEMBL document CHEMBL3885861.

species: Rattus norvegicus; assay: Open TG-GATES - Regimen: Daily Repeat; format: toxicity, organism-based, Sprague-Dawley; design: regimen Daily Repeat, gender Male, age 6 weeks; conditions: in vivo, po, 300 mg/kg, […], tissue Plasma, route gavage, dose level Middle, time 28 day
MEASUREMENT TYPE: RALB (g/dL)

> print(dat)
                                   compound  val
1  CC(S)C(=O)NCC(=O)O (centres undefined) [TIOPRONIN]  3.3
2  CC(=O)[C@@]1(O)CC[C@H]2[C@@H]3C=C(Cl)C4=CC(=O)CC[C@]4(C)[C@H]3CC[C@@]21C [CHLORMADINONE]  3.3
3  CCCCNC(=O)NS(=O)(=O)c1ccc(C)cc1 [TOLBUTAMIDE]  2.8
4    O=C(O)c1ccccc1Nc1ccccc1 [FENAMIC ACID]  2.9

====

// Ht lookup, one value per entry
organism: Rattus norvegicus; assay: Open TG-GATES - Regimen: Single; assay type: toxicity, organism-based, Sprague-Dawley; design: regimen Single, gender Male, age 6 weeks; conditions: in vivo, po, 0 mg/kg, 3 h, tissue Blood, route gavage, dose level Control
MEASUREMENT TYPE: Ht (%)

> print(dat)
                                   compound  measurement.type  measurement.units   val
1          CN(C)CCCN1c2ccccc2Sc2ccc(Cl)cc21                Ht                  %  39.3
2                CCN(CC)C(=S)SSC(=S)N(CC)CC                Ht                  %  40.8
3                                       CCO                Ht                  %  39.9
4  COc1ccc([C@@H]2Sc3ccccc3N(CCN(C)C)C(=O)[C@@H]2OC(C)=O)cc1                Ht                  %  40.2
5  COc1cc2ncnc(Nc3ccc(F)c(Cl)c3)c2cc1OCCCN1CCOCC1                Ht                  %  39.6
6  NS(=O)(=O)c1cc(C(=O)O)c(NCc2ccco2)cc1Cl [FUROSEMIDE]                Ht                  %  39.9
7  CC(=O)[C@@]1(O)CC[C@H]2[C@@H]3C=C(Cl)C4=CC(=O)CC[C@]4(C)[C@H]3CC[C@@]21C                Ht                  %    41
8                          O=c1ccc2ccccc2o1                Ht                  %    40

====

species on record: Rattus norvegicus; test: Open TG-GATES - Regimen: Single; format: toxicity, organism-based, Sprague-Dawley; set-up: regimen Single, gender Male, age 6 weeks; details: in vivo, po, 0 mg/kg, 9 h, tissue Plasma, route gavage, dose level Control
MEASUREMENT TYPE: RALB (g/dL)

> print(dat)
                                    compound  measurement.type  val
 1  CN(CCOc1ccc(CC2SC(=O)NC2=O)cc1)c1ccccn1.O=C(O)/C=C\C(=O)O (stereo unspecified) [ROSIGLITAZONE MALEATE]              RALB  3.8
 2                   Nc1ccc(Cc2ccc(N)cc2)cc1              RALB  2.5
 3          CN(C)CCCN1c2ccccc2Sc2ccc(Cl)cc21              RALB  3.3
 4                CCN(CC)C(=S)SSC(=S)N(CC)CC              RALB  3.1
 5                                       CCO              RALB  3.9
 6                          O=c1ccc2ccccc2o1              RALB  3.7
 7  CCCCNC(=O)NS(=O)(=O)c1ccc(C)cc1 [TOLBUTAMIDE]              RALB  2.5
 8  COc1ccc([C@@H]2Sc3ccccc3N(CCN(C)C)C(=O)[C@@H]2OC(C)=O)cc1              RALB  2.5
 9   CC(S)C(=O)NCC(=O)O (stereo unspecified)              RALB  2.8
10  C=C[C@H]1C[N@@]2CC[C@H]1C[C@@H]2[C@@H](O)c1ccnc2ccc(OC)cc12              RALB    3
11                   O=C(O)c1ccccc1Nc1ccccc1              RALB  2.6

====

organism: Rattus norvegicus; assay: Open TG-GATES - Regimen: Daily Repeat; assay type: toxicity, organism-based, Sprague-Dawley; design: regimen Daily Repeat, gender Male, age 6 weeks; conditions: in vivo, po, 0 mg/kg, […], tissue Plasma, route gavage, dose level Control, time 7 day
MEASUREMENT TYPE: DBIL (mg/dL)

> print(dat)
                                   molecule  measurement.type  measurement.units    val
1  CCCCNC(=O)NS(=O)(=O)c1ccc(C)cc1 [TOLBUTAMIDE]              DBIL              mg/dL  0.012
2  COc1ccc([C@@H]2Sc3ccccc3N(CCN(C)C)C(=O)[C@@H]2OC(C)=O)cc1 [DILTIAZEM]              DBIL              mg/dL  0.014
3                             CCO [ALCOHOL]              DBIL              mg/dL  0.006

====

species: Rattus norvegicus; experiment: Open TG-GATES - Regimen: Single; assay type: toxicity, organism-based, Sprague-Dawley; design: regimen Single, gender Male, age 6 weeks; conditions: in vivo, po, 0 mg/kg, 24 h, tissue Plasma, route gavage, dose level Control
MEASUREMENT TYPE: gamma-GTP (IU/L)

> print(dat)
                                   compound  measurement.type  measurement.units  val
1  NS(=O)(=O)c1cc(C(=O)O)c(NCc2ccco2)cc1Cl [FUROSEMIDE]         gamma-GTP               IU/L  0.8
2                   Nc1ccc(Cc2ccc(N)cc2)cc1         gamma-GTP               IU/L    1
3  COc1cc2ncnc(Nc3ccc(F)c(Cl)c3)c2cc1OCCCN1CCOCC1         gamma-GTP               IU/L  1.3
4  CC(=O)[C@@]1(O)CC[C@H]2[C@@H]3C=C(Cl)C4=CC(=O)CC[C@]4(C)[C@H]3CC[C@@]21C         gamma-GTP               IU/L    1
5                                       CCO         gamma-GTP               IU/L  1.4

====

species: Rattus norvegicus; assay: Open TG-GATES - Regimen: Single; assay type: toxicity, organism-based, Sprague-Dawley; parameters: regimen Single, gender Male, age 6 weeks; settings: in vivo, po, 0 mg/kg, 6 h, tissue Plasma, route gavage, dose level Control
MEASUREMENT TYPE: BUN (mg/dL)

> print(dat)
                                   compound  measurement.type   val
1      CN(C/C=C/C#CC(C)(C)C)Cc1cccc2ccccc12               BUN  10.6
2                   Nc1ccc(Cc2ccc(N)cc2)cc1               BUN     9
3                   O=C(O)c1ccccc1Nc1ccccc1               BUN   7.8
4  CN(CCOc1ccc(CC2SC(=O)NC2=O)cc1)c1ccccn1.O=C(O)/C=C\C(=O)O (stereo not given) [ROSIGLITAZONE MALEATE]               BUN  10.4
5     CC(S)C(=O)NCC(=O)O (stereo not given)               BUN  10.6

====

species on record: Rattus norvegicus; assay: Open TG-GATES - Regimen: Single; format: toxicity, organism-based, Sprague-Dawley; parameters: regimen Single, gender Male, age 6 weeks; conditions: in vivo, po, 0 mg/kg, 6 h, tissue Blood, route gavage, dose level Control
// MCV lookup, one value per entry
MEASUREMENT TYPE: MCV (fL)

> print(dat)
                                   molecule  measurement.type   val
1  COc1ccc([C@@H]2Sc3ccccc3N(CCN(C)C)C(=O)[C@@H]2OC(C)=O)cc1 [DILTIAZEM]               MCV  66.8
2                   Nc1ccc(Cc2ccc(N)cc2)cc1               MCV  62.8
3  CN(C)CCCN1c2ccccc2Sc2ccc(Cl)cc21 [CHLORPROMAZINE]               MCV  61.2
4    O=C(O)c1ccccc1Nc1ccccc1 [FENAMIC ACID]               MCV  62.7
5  CCCCNC(=O)NS(=O)(=O)c1ccc(C)cc1 [TOLBUTAMIDE]               MCV  63.6
6                             CCO [ALCOHOL]               MCV  64.9
7  CC(S)C(=O)NCC(=O)O (configuration not stated) [TIOPRONIN]               MCV  64.1
